Assay: TROY pathway blockers in reporter cells – Q293 LMP1-TROYcd cells, NF-kB luciferase, uHTS, primary screen (AID 1347056)
Details: 4 h, at 10 µM
In all, about 360,000 compounds went through this assay and about 3,600 (1%) were called active.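 The calls were made as follows: active = compounds whose plate-normalised and pattern-corrected inhibition of the luciferase reporter signal at the single screening dose is 50% or more; inactive = the rest.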 The entries come from a sample that favours actives as a whole.
Outcome codes: YES for active, NO for inactive

MOLECULE	CAT
CC(=O)Nc1ccc(NC(=O)CSC2=NS(=O)(=O)c3ccccc3N2)cc1	NO
Cc1ccccc1CN(c1ccc(C(=O)NCC2CCCO2)cc1)S(C)(=O)=O (stereo unspecified)	NO
O=S1(=O)CC(NCc2ccccc2)C(Nc2ccc(Cl)cc2)C1 (stereo unspecified)	YES
Cc1ccnc(NC(=O)CCNS(=O)(=O)c2ccc(C)c(C)c2)c1	NO
Clc1nc(NC2CCCC2)nc(N2CCOCC2)n1	NO
Cc1ccc(F)cc1NC(=O)N1CCCN(c2ccc(C(F)(F)F)cn2)CC1	NO

---

Assay: TROY pathway blockers in reporter cells – Q293 LMP1-TROYcd cells, NF-kB luciferase, uHTS, primary screen (AID 1347056)
Conditions: 4 h, at 10 µM, hits give high values
Screen size: about 360,000 compounds; about 3,600 (1%) were called active. The list comes from a sample in which actives are over-represented; it also holds close analogues and randomly drawn compounds.
Label class 0 if inhibition falls below -10%; label class 1 in every other case.

COMPOUND	CAT
Cc1nc(Nc2ccccc2F)c2nnn(Cc3ccccc3Cl)c2n1	class 1
CCN(C(=O)CSc1nnnn1-c1ccccc1OC)C1CCS(=O)(=O)C1 (stereo unspecified)	class 0
Cc1nc(Nc2ccc3c(c2)OCCO3)c2nnn(Cc3ccccc3Cl)c2n1	class 1
COc1ccc(OC)c(C(=O)NC2CCCc3c2cnn3-c2cc(C)cc(C)c2)c1 (stereo unspecified)	class 0
Cc1cc(CNC(=O)C2CCC(=O)N(CCc3ccc(Cl)cc3)C2)no1 (stereo unspecified)	class 0
CCn1c(C(C)NC(=O)c2ccc(C)cc2)n[nH]c1=S (stereo unspecified)	class 1

---

Test: TROY pathway blockers in reporter cells – Q293 LMP1-TROYcd cells, NF-kB luciferase, uHTS, primary screen (AID 1347056)
Conditions: 4 h, at 10 µM
The campaign covered roughly 360,000 compounds. About 3,600 (1%) were called active.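 The calls were made as follows: active = compounds whose plate-normalised and pattern-corrected inhibition of the luciferase reporter signal at the single screening dose is 50% or more; inactive = the rest.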 This is one part of a sample in which actives are shown more often than they occur.
Outcome codes: active, inactive

MOLECULE	CAT
O=C(NC1CC1)c1ccc(-c2ccccc2)cc1	inactive
Cn1cc(CNC(=O)c2ccc(OC3CCN(Cc4ccccn4)CC3)cc2)cn1	inactive
CC(Sc1nncn1C)C(=O)Nc1ccccc1-c1ccccc1 (configuration not stated)	inactive
O=C(COC(=O)c1cccnc1Cl)NC(=O)NC1CCCCC1	inactive
CCC(C)NC(=O)CN(C1CCCCC1)S(C)(=O)=O (configuration not stated)	inactive
Cc1ccc(CC(=O)Nc2cccc(C#N)c2)cc1	inactive
O=C1c2ccccc2C(=O)N1CCC#Cc1ccc2cc(C3(O)CCCCC3)oc(=O)c2c1	active
O=C(NC1CC1)c1cccc(Br)c1	active
CCOC(=O)/C(=C\c1ccc([N+](=O)[O-])cc1)C(=O)c1cc(C(C)=O)c(Nc2ccccc2)s1	inactive
Cc1ccccc1NC(=O)C(C)c1ccc(-c2ccccc2)c(F)c1 (configuration not stated)	inactive
CN(CCc1ccccn1)C(=O)c1ccc(OC2CCN(CCc3ccccc3)CC2)cc1	inactive
C/C(=N\NC(=O)c1ccc(NS(=O)(=O)c2cccs2)cc1)c1ccc2ccccc2c1	inactive
CC1COc2ccccc2N1C(=O)c1cccnc1Cl (configuration not stated)	inactive
C=CCc1c(C)nc2cc(-c3ccccc3)[nH]n2c1=O	inactive
CCC[C@H]1CCCC/C=C\CCCC(=O)OCCN1C(=O)OC(C)(C)C	inactive
COc1ccccc1/C=C/CN1CCC(CO)(Cc2ccccc2)CC1	inactive
Cc1ccc(CCN2CC(C(=O)O)CC2=O)cc1 (configuration not stated)	inactive
C/C(CC(=O)NCc1ccc(Cl)cc1)=N\NC(=O)COc1ccc(C)cc1Br	inactive
CCOC(=O)C(=Cc1ccccc1OC)C(=O)OCC	inactive
O=C(/C=C/NCc1ccc(F)cc1)c1ccccc1	inactive
Cc1ccc(NC(=O)C2CC(=O)N(c3ccc4c(c3)OCCO4)C2)cc1S(=O)(=O)N1CCCCCC1 (configuration not stated)	inactive
CCN1C(=O)[C@@H]2[C@@H]3CN(S(=O)(=O)c4ccccc4C)[C@@H](c4ccc(Cl)cc4)[C@@H]3C(=O)C[C@@H]2C1=O	inactive
